system: RPMI-8226 leukemia; assay: NCI-60 one-dose screen, 48 h (100 = growth as untreated, 0 = no growth, -100 = all killed); conditions: 10 µM unless noted
About 83,000 compounds went through this panel and 20% of them were active in at least one assay; those are over-represented in the sample as a whole.
propertyName: growth (%)

molecule=O=C(Nc1ccc(Cl)cc1)c1cc(-c2ccc(F)cc2)c2sc(=O)[nH]c2n1 recordedmeasurement=10.9
molecule=O=[N+]([O-])c1c(S(=O)(=O)O)cc2cc(S(=O)(=O)O)ccc2c1[N+](=O)[O-] recordedmeasurement=109
molecule=C=C1C(=O)O[C@H]2[C@H]1CC/C(COC(=O)NCCc1ccc(Br)cc1)=C\CC[C@@]1(C)O[C@@H]21 recordedmeasurement=2.82
molecule=N#Cc1c(NC(=O)c2ccc([N+](=O)[O-])o2)[n+]([O-])c2cc(F)c(F)cc2[n+]1[O-] recordedmeasurement=111
molecule=Cc1ccc2c(c1)C(=O)C(c1c(-c3[nH]c(=O)c4ccc(C)cc4c3O)c(O)c3ccccc3c1O)=NC2=O recordedmeasurement=32.8
molecule="CCN1C(=O)N(CC)C2Nn3c(s/c(=C\\c4cccc(F)c4)c3=O)=NC21 (stereo not drawn)" recordedmeasurement=90.7
molecule="COC(=O)[C@H]1[C@H](OC)[C@@H](OC(=O)/C=C/c2ccncc2)CC2CN3CCc4c([nH]c5cc(OC)ccc45)[C@@H]3C[C@@H]21 (stereo partly drawn)" recordedmeasurement=57.4
molecule=COc1ccc(/C=C\c2cc(OC)c(OC)c(OC)c2)c(NS(=O)(=O)c2ccc(C(C)(C)C)cc2)c1O recordedmeasurement=27.9
